system: GRK4; conditions: concentration: 1 μM, replicates: in singlicate; n = 1;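 also: KINOMEscan kinase panel screen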

[
  {
    "MOLECULE": "CCCCc1nn2ncccc2c1-c1ccnc(NC2CC2)n1",
    "%Inh (%)": 0
  },
  {
    "MOLECULE": "CS(=O)(=O)CCNCc1nc(-c2ccc3ncnc(Nc4ccc(OCc5ccccc5)c(Cl)c4)c3c2)cs1.Cl",
    "%Inh (%)": 4
  },
  {
    "MOLECULE": "O=C1NC(=O)C(c2ccc(Cl)cc2)=C1Nc1cccc(Cl)c1",
    "%Inh (%)": 21
  },
  {
    "MOLECULE": "CC(=O)c1c(C)c2cnc(Nc3ccc(N4CCNCC4)cn3)nc2n(C2CCCC2)c1=O",
    "%Inh (%)": 7
  },
  {
    "MOLECULE": "Cc1ccc(NC(=O)Nc2ccc(Cl)cc2)cc1-c1ccc(C(=O)Nc2ccncc2)cc1",
    "%Inh (%)": 25
  },
  {
    "MOLECULE": "COc1ccc(Nc2nccc(-c3ccc(NC(=O)c4cc5cc(F)ccc5[nH]4)cc3)n2)cc1",
    "%Inh (%)": 0
  },
  {
    "MOLECULE": "CSc1ccc(-c2nc3n(c2-c2ccncc2)CCC3)cc1",
    "%Inh (%)": 5
  },
  {
    "MOLECULE": "Cc1c(Cn2c3ccccc3n3c(=O)cc(N4CCOCC4)nc23)cccc1C(F)(F)F",
    "%Inh (%)": 0
  },
  {
    "MOLECULE": "COC(=O)C(NC(=O)NC1CCN(c2ccnc(Nc3ccc(F)cc3)n2)C1)c1ccccc1 (stereo not drawn)",
    "%Inh (%)": 0
  },
  {
    "MOLECULE": "NS(=O)(=O)c1cccc(N/C=C2\\C(=O)Nc3ccc(S(=O)(=O)Cc4c(Cl)cccc4Cl)cc32)c1",
    "%Inh (%)": 0
  },
  {
    "MOLECULE": "CC(=O)c1cccc(NC(=O)NC2CCN(c3ccnc(Nc4ccc(F)cc4)n3)C2)c1 (stereo not drawn)",
    "%Inh (%)": 0
  },
  {
    "MOLECULE": "COc1cccc(C2=C(Nc3cc(Cl)c(O)c(Cl)c3)C(=O)NC2=O)c1",
    "%Inh (%)": 1
  },
  {
    "MOLECULE": "Fc1ccc(-c2nc3n(c2-c2ccncc2)CCS3)cc1",
    "%Inh (%)": 0
  },
  {
    "MOLECULE": "Cc1ccc(-c2nc(Nc3ccncc3)c3ccccc3n2)s1",
    "%Inh (%)": 13
  },
  {
    "MOLECULE": "Cn1cncc1-c1cc2c(Nc3ccc(OCc4ccccc4)cc3)ncnc2cn1",
    "%Inh (%)": 0
  },
  {
    "MOLECULE": "COc1cccc(NC(=O)Nc2ccc(C)c(-c3ccc(C(=O)Nc4ccncc4)cc3)c2)c1",
    "%Inh (%)": 3
  },
  {
    "MOLECULE": "COc1ccc2cc(-c3nc(-c4ccccc4C(C)C)[nH]c3-c3ccncc3)ccc2c1",
    "%Inh (%)": 0
  },
  {
    "MOLECULE": "COC(=O)C(Cc1ccccc1)NC(=O)NC1CCN(c2ccnc(Nc3ccc(F)cc3)n2)C1 (stereo not drawn)",
    "%Inh (%)": 1
  }
]

* * *

tested on: MST1; construct: gene STK4; conditions: concentration: 1 μM, replicates: in singlicate; n = 1
Quick reference: %Inh of the listed items.
QUANTITY_KIND: %Inh (%)

[
  {
    "MOLECULE": "Cc1ccc(NC(=O)Nc2ccc(Cl)c(C(F)(F)F)c2)cc1-c1ccc(C(=O)Nc2ccncc2)cc1",
    "UNIT_SPEC": "%",
    "TEST_RESULT": 9
  },
  {
    "MOLECULE": "Cc1ccc(NC(=O)Nc2ccccc2F)cc1-c1ccc(C(=O)Nc2ccncc2)cc1",
    "UNIT_SPEC": "%",
    "TEST_RESULT": 22
  },
  {
    "MOLECULE": "CCCCc1nn2ncccc2c1-c1ccnc(NC2CC2)n1",
    "UNIT_SPEC": "%",
    "TEST_RESULT": 0
  },
  {
    "MOLECULE": "COc1ccc(-c2coc3ccc(-c4nnc(C)o4)cc23)cc1",
    "UNIT_SPEC": "%",
    "TEST_RESULT": 0
  },
  {
    "MOLECULE": "Cn1cncc1-c1cc2c(Nc3ccc(OCc4ccccc4)cc3)ncnc2cn1",
    "UNIT_SPEC": "%",
    "TEST_RESULT": 0
  },
  {
    "MOLECULE": "COc1ccc(CSc2nnc(-c3ccc4c(c3)CCO4)o2)cc1",
    "UNIT_SPEC": "%",
    "TEST_RESULT": 0
  },
  {
    "MOLECULE": "O=C(Nc1n[nH]c2nc(-c3ccco3)c(Br)cc12)C1CCN(Cc2ccccc2)C1.O=C(O)[C@H](O)[C@@H](O)C(=O)O (centres unmarked)",
    "UNIT_SPEC": "%",
    "TEST_RESULT": 0
  },
  {
    "MOLECULE": "COC(=O)c1cccc(NC(=O)NC2CCN(c3ccnc(Nc4ccc(OC)cc4)n3)C2)c1 (centres unmarked)",
    "UNIT_SPEC": "%",
    "TEST_RESULT": 0
  }
]

* * *

test system: PCTK3; construct: gene CDK18; details: concentration: 1 μM, replicates: in singlicate; n = 1
Short version: %Inh at least 8% is Condition met, less is Condition not met.

[
  {
    "MOLECULE": "CC(C)c1cc(-c2ccc3c(N)n[nH]c3c2)nc(N)n1 [GSK2250882]",
    "TEST_SYSTEM": "PCTK3",
    "LABEL_CLASS": "Condition met"
  },
  {
    "MOLECULE": "CS(=O)(=O)CCNCc1nc(-c2ccc3ncnc(Nc4ccc(OCc5ccccc5)c(Cl)c4)c3c2)cs1.Cl [GW582764]",
    "TEST_SYSTEM": "PCTK3",
    "LABEL_CLASS": "Condition met"
  },
  {
    "MOLECULE": "CCc1ccc(-c2ccc3c(c2)-c2n[nH]cc2S(=O)(=O)N3C)cc1",
    "TEST_SYSTEM": "PCTK3",
    "LABEL_CLASS": "Condition not met"
  },
  {
    "MOLECULE": "Cc1ccc(NC(=O)Nc2ccccc2)cc1-c1ccc(C(=O)Nc2ccncc2)cc1 [GSK1398471]",
    "TEST_SYSTEM": "PCTK3",
    "LABEL_CLASS": "Condition met"
  },
  {
    "MOLECULE": "Cc1ccc(NC(=O)Nc2ccc(Cl)cc2)cc1-c1ccc(C(=O)Nc2ccncc2)cc1 [GSK1398472]",
    "TEST_SYSTEM": "PCTK3",
    "LABEL_CLASS": "Condition not met"
  },
  {
    "MOLECULE": "CNC(=O)c1ccc(C)c(-n2c(C)cc(OCc3ccc(F)cc3F)c(Br)c2=O)c1",
    "TEST_SYSTEM": "PCTK3",
    "LABEL_CLASS": "Condition not met"
  },
  {
    "MOLECULE": "O=C(Nc1n[nH]c2nc(-c3ccco3)c(Br)cc12)C1CCN(Cc2ccccc2)C1.O=C(O)[C@H](O)[C@@H](O)C(=O)O (stereo not drawn) [SB-742034]",
    "TEST_SYSTEM": "PCTK3",
    "LABEL_CLASS": "Condition met"
  },
  {
    "MOLECULE": "Nc1nccc(-c2c(-c3ccc(F)cc3)ncn2C2CCN(Cc3ccccc3)CC2)n1 [SB-219980]",
    "TEST_SYSTEM": "PCTK3",
    "LABEL_CLASS": "Condition not met"
  }
]

* * *

Quick reference: %Inh of the listed items.
system: DYRK1A; conditions: concentration: 1 μM, replicates: in singlicate; n = 1
QUANTITY_KIND: %Inh (%)

[
  {
    "COMPOUND": "Cl.Cl.Cl.N#Cc1ccc(CCNc2nccc(-c3cccc(CN4CCNCC4)c3)n2)cc1",
    "TEST_RESULT": 0
  },
  {
    "COMPOUND": "CCCCc1nn2ncccc2c1-c1ccnc(NC2CC2)n1",
    "TEST_RESULT": 12
  },
  {
    "COMPOUND": "Cc1c(Cn2c3ccccc3n3c(=O)cc(N4CCOCC4)nc23)cccc1C(F)(F)F",
    "TEST_RESULT": 7
  },
  {
    "COMPOUND": "COc1cccc(NC(=O)Nc2ccc(C)c(-c3ccc(C(=O)Nc4ccncc4)cc3)c2)c1",
    "TEST_RESULT": 9
  },
  {
    "COMPOUND": "CNc1nc(-c2ccc3c(N)n[nH]c3c2)cc(N2C[C@@H](C(=O)Nc3ccccc3)CC[C@H]2C)n1",
    "TEST_RESULT": 15
  },
  {
    "COMPOUND": "Cc1ccccc1-c1cc(-c2c[nH]nc2-c2ccccn2)ccn1",
    "TEST_RESULT": 14
  },
  {
    "COMPOUND": "COc1ccc(CSc2nnc(-c3ccc4nccn4c3)o2)cc1C(F)(F)F",
    "TEST_RESULT": 41
  },
  {
    "COMPOUND": "CCc1ccc(-c2ccc3c(c2)-c2n[nH]cc2S(=O)(=O)N3C)cc1",
    "TEST_RESULT": 0
  },
  {
    "COMPOUND": "Nc1nccc(-c2c(-c3ccc(F)cc3)ncn2C2CCN(Cc3ccccc3)CC2)n1",
    "TEST_RESULT": 0
  },
  {
    "COMPOUND": "Cc1ccc(NC(=O)c2ccc(Cl)cc2)cc1-c1ccc(C(=O)Nc2ccncc2)cc1",
    "TEST_RESULT": 4
  },
  {
    "COMPOUND": "Cc1ccc(NC(=O)Nc2ccccc2)cc1-c1ccc(C(=O)Nc2ccncc2)cc1",
    "TEST_RESULT": 9
  },
  {
    "COMPOUND": "COc1ccc(Nc2nccc(N3CCC(NC(=O)C(C)c4ccc(Cl)cc4)CC3)n2)cc1 (stereo not drawn)",
    "TEST_RESULT": 99.2
  },
  {
    "COMPOUND": "COC(=O)c1cccc(NC(=O)NC2CCN(c3ccnc(Nc4ccc(OC)cc4)n3)C2)c1 (stereo not drawn)",
    "TEST_RESULT": 11
  },
  {
    "COMPOUND": "COc1ccc(Nc2nccc(NCCNC(=O)Nc3cc(C)ccc3C)n2)cc1",
    "TEST_RESULT": 18
  },
  {
    "COMPOUND": "COc1cc2ncnc(Nc3cccc(Br)c3)c2cc1OC.Cl",
    "TEST_RESULT": 15
  },
  {
    "COMPOUND": "Cc1ccccc1Cn1ccn2c(=O)cc(N3CCOCC3)nc12",
    "TEST_RESULT": 16
  },
  {
    "COMPOUND": "COc1nccc(-c2c(-c3ccc(F)cc3)ncn2CCCN2CCOCC2)n1",
    "TEST_RESULT": 0
  },
  {
    "COMPOUND": "Cc1ccc(NC(=O)Nc2ccc(Cl)cc2)cc1-c1ccc(C(=O)Nc2ccncc2)cc1",
    "TEST_RESULT": 19
  },
  {
    "COMPOUND": "Cc1ccc(-c2nc(Nc3ccncc3)c3ccccc3n2)s1",
    "TEST_RESULT": 28
  },
  {
    "COMPOUND": "CC(=O)c1cccc(NC(=O)NC2CCN(c3ccnc(Nc4ccc(F)cc4)n3)C2)c1 (stereo not drawn)",
    "TEST_RESULT": 0
  },
  {
    "COMPOUND": "Nc1cccc(-c2ccc3c(N)n[nH]c3c2)n1",
    "TEST_RESULT": 25
  },
  {
    "COMPOUND": "Cn1cncc1C(=O)NC1CCN(c2ccnc(Nc3ccc(F)cc3)n2)C1 (stereo not drawn)",
    "TEST_RESULT": 0
  },
  {
    "COMPOUND": "Fc1ccc(-c2nc3n(c2-c2ccncc2)CCS3)cc1",
    "TEST_RESULT": 15
  },
  {
    "COMPOUND": "CC(=O)c1c(C)c2cnc(Nc3ccc(N4CCNCC4)cn3)nc2n(C2CCCC2)c1=O",
    "TEST_RESULT": 0
  },
  {
    "COMPOUND": "Cc1nccc(-c2c(-c3ccc(F)cc3)ncn2CCCN2CCOCC2)n1.Cl",
    "TEST_RESULT": 17
  },
  {
    "COMPOUND": "CC(C)c1ccc(O)cc1Nc1ccnc2ccc(C(F)(F)F)cc12",
    "TEST_RESULT": 13
  },
  {
    "COMPOUND": "CCn1c(-c2ccccc2)nc2cnccc21",
    "TEST_RESULT": 23
  },
  {
    "COMPOUND": "FC(F)(F)c1ccccc1-c1cc(-c2c[nH]nc2-c2ccccn2)ccn1",
    "TEST_RESULT": 0
  },
  {
    "COMPOUND": "c1ccc(-c2ccnc3[nH]ccc23)cc1",
    "TEST_RESULT": 34
  },
  {
    "COMPOUND": "Cc1ccc(NC(=O)Nc2ccccc2F)cc1-c1ccc(C(=O)Nc2ccncc2)cc1",
    "TEST_RESULT": 26
  }
]
